Measured IC50 at 40 h values are reported for all entries that follow.
# PROCEDURE SUMMARY: Cytotoxicity against human HepG2 cells incubated for 40 hrs by celltiter-glo luminescent cell viability assay
# Format: toxicity, cell-based

MOLECULE	IC50 at 40 h (µg/mL)
CC[C@H](C)[C@@H](NC(=O)[C@@H](NC(=O)[C@H](CCC(=O)O)NC(=O)[C@H](Cc1ccccc1)NC(=O)[C@@H](CCN)NC(=O)[C@H](CCN)NC(=O)[C@H](CO)NC(=O)[C@@H](Cc1c[nH]c2ccccc12)NC(=O)[C@@H](CO)NC(=O)CNC(=O)[C@@H](CCN)NC(=O)[C@H](N)C(C)C)C(C)C)C(=O)N[C@H](C(=O)O)C(C)(C)C	43
CC[C@H](C)[C@@H](NC(=O)[C@H](C)NC(=O)[C@H](CCC(=O)O)NC(=O)[C@H](Cc1ccccc1)NC(=O)[C@@H](CCN)NC(=O)[C@H](CCN)NC(=O)[C@H](CO)NC(=O)[C@@H](Cc1c[nH]c2ccccc12)NC(=O)[C@@H](CO)NC(=O)CNC(=O)[C@@H](CCN)NC(=O)[C@H](N)C(C)C)C(=O)N[C@@H](C)C(=O)O	58

* * *

# PROCEDURE SUMMARY: Cmax in Swiss mouse kidney at 10 mg/kg, iv administered as single bolus dose and measured upto 24 hrs by LC-MS/MS analysis
# Type: ADME, organism-based
TEST READOUT: Cmax

MOLECULE	TEST READOUT	VALUE MEASURED
CC[C@H](C)[C@@H](NC(=O)[C@@H](NC(=O)[C@H](CCC(=O)O)NC(=O)[C@H](Cc1ccccc1)NC(=O)[C@@H](CCN)NC(=O)[C@H](CCN)NC(=O)[C@H](CO)NC(=O)[C@@H](Cc1c[nH]c2ccccc12)NC(=O)[C@@H](CO)NC(=O)CNC(=O)[C@@H](CCN)NC(=O)[C@H](NC(=O)[C@H](C)N)C(C)C)C(C)C)C(=O)N[C@@H](C)C(=O)O	Cmax	152 µg/mL

* * *

# PROCEDURE SUMMARY: Cytotoxicity against human HepG2 cells incubated for 40 hrs by celltiter-glo luminescent cell viability assay
# Type: toxicity, cell-based

MOLECULE	IC50 at 40 h
CC[C@H](C)[C@@H](NC(=O)[C@@H](NC(=O)[C@H](C)NC(=O)[C@H](Cc1ccccc1)NC(=O)[C@@H](CCN)NC(=O)[C@H](CCN)NC(=O)[C@H](CO)NC(=O)[C@@H](Cc1c[nH]c2ccccc12)NC(=O)[C@@H](CO)NC(=O)CNC(=O)[C@@H](CCN)NC(=O)[C@H](N)C(C)C)C(C)C)C(=O)N[C@@H](C)C(=O)O	> 170 µg/mL
CC[C@H](C)[C@@H](NC(=O)[C@@H](NC(=O)[C@H](CCC(=O)O)NC(=O)[C@H](Cc1ccccc1)NC(=O)[C@@H](CCN)NC(=O)[C@H](CCN)NC(=O)[C@H](CO)NC(=O)[C@@H](Cc1c[nH]c2ccccc12)NC(=O)[C@@H](CO)NC(=O)CNC(=O)[C@@H](CCN)NC(=O)[C@H](N)CC(=O)O)C(C)C)C(=O)N[C@@H](C)C(=O)O	> 170 µg/mL
CC[C@H](C)[C@@H](NC(=O)[C@@H](NC(=O)[C@H](CCC(=O)O)NC(=O)[C@H](Cc1ccccc1)NC(=O)[C@@H](CCN)NC(=O)[C@H](CCN)NC(=O)[C@H](CO)NC(=O)[C@@H](Cc1c[nH]c2ccccc12)NC(=O)[C@@H](CCN)NC(=O)CNC(=O)[C@@H](CCN)NC(=O)[C@H](N)C(C)C)C(C)C)C(=O)N[C@@H](C)C(=O)O	> 170 µg/mL

// provenance: ChEMBL document CHEMBL5518181
